experiment: yeast display, Sf9 membrane polyspecificity reagent, FACS + sequencing; frameworks hold sequencing errors
endpoint_label: polyreactivity (PSR sort gate)

// below: answered sequences
sequence_code: QVQLVESGGGLVQAGGSLRLSCAASGFIFSGYAMGWSRQAPGKERELVAAITWSGSNTFYADSVKGRFTISRDNAKNTVYLQMNSLKPEDTAVYYCNAVSKYKRSDYYYWGQGTQVTVSS
endpoint_label: polyreactivity (PSR sort gate)
reported_measurement: high polyreactivity
//
sequence_code: QVQLVESGGGLVQAGGSLRLSCAASGIIFDSYAMGWYRQAPGKERELVAAITSRGGRTYYADSVKGRFTISRDNAKNTVSLQMNSLKPEDTAVYYCAARAKYDRRTDGTSGYDYWGQGTQVTVSS
endpoint_label: polyreactivity (PSR sort gate)
reported_measurement: low polyreactivity
//
sequence_code: QVQLVESGGGLVQAGGSLRLSCAASGSIFADYAMGWYRQAPGKERELVAVITSSGGSTNYADSVKGRFTISRDNAKNTVYLQMNSLKPEDTAVYYCNRRPYPSYDYWGQGTQVTVSS
endpoint_label: polyreactivity (PSR sort gate)
reported_measurement: low polyreactivity
//
sequence_code: QVQLVESGGGLVHPGGSLRLSCDASGLILDGYAMGWYRQAPGKERELVAAITRSGGRTYYADSVKGRFTISRDNAKNTVNLQKNRQKPVDTAVYHSAALGWSGRYRYDYWGQGTQVTVSS
endpoint_label: polyreactivity (PSR sort gate)
reported_measurement: high polyreactivity

# return recorded polyreactivity (PSR sort gate) for entry `QVQLVESGGGLVQAGGSLRLSCAASGLTFYQYAMGWYRQAPGKERELVAGISSGGSTKYADSVKGRFTISRDNAKNTVYLQMNSLKPEDTAVYYCAARFCAFRKGYYYWGQGTQVTVSS`
high polyreactivity
